meta.source: paper PMC7734798

Tested on: primary rat cerebellar granule neurons (CGNs)
EXPERIMENTAL_SETUP: 5 μM, 24 h treatment
MEASURED_PARAMETER: cell survival/death in CGNs, % mean ± SE of controls (MTT) (%)
Form entry: value (%) — number only.

Worked examples, 3 compounds total:
CC/C=C\C/C=C\C/C=C\CCCCCCCC(=O)OCCOC(=O)C(CCC)CCC [compound 4]
118
CC/C=C\C/C=C\C/C=C\CCCCCCCC(=O)NCCOC(=O)C(CCC)CCC [compound 2]
97
CC/C=C\C/C=C\C/C=C\CCCCCCCC(=O)OCCNC(=O)C(CCC)CCC [compound 3]
119

QUERY: Please give the measured cell survival/death in CGNs, % mean ± SE of controls (MTT) for this compound: CC/C=C\C/C=C\C/C=C\CCCCCCCC(=O)O [ALA, α-linolenic acid, reference compound]
RESULT: 93

QUERY: Item: CC/C=C\C/C=C\C/C=C\CCCCCCCC(=O)NCCNC(=O)C(CCC)CCC [compound 1]
RESULT: 98

----------
ASSAY_INFO: Brain stability / hydrolysis kinetics in rat brain homogenate (LC-DAD-MS/MS)
Type: in vitro ADME
EXPERIMENTAL_SETUP: rat, brain homogenate; 37 °C, absence of FAAH inhibitor
Description: We anticipated that, once they entered into the brain, conjugates would be hydrolyzed to the individual components by intracellular metabolic enzymes processing fatty acid derivatives (e.g., FAAH).[9],[17] Thus, the stability of 1 and 2 was evaluated by LC-DAD-MS/MS analysis of rat brain homogenate incubated with the conjugates, which was sampled at regular intervals over 1 h. […]
Measured half-life at 1 µg/mL by item

CC/C=C\C/C=C\C/C=C\CCCCCCCC(=O)NCCNC(=O)C(CCC)CCC
~23 min

QUERY: # half-life at 1 µg/mL lookup, item `CC/C=C\C/C=C\C/C=C\CCCCCCCC(=O)NCCOC(=O)C(CCC)CCC`
RESULT: ~16 min

----------
ASSAY_INFO: PAMPA-BBB permeation assay
EXPERIMENTAL_SETUP: PAMPA, pH 7.4
MEASURED_PARAMETER: Papp at 100 µM (×10⁻⁶ cm/s)
Write down the numeric answer in ×10⁻⁶ cm/s and omit the unit.

CC/C=C\C/C=C\C/C=C\CCCCCCCC(=O)NCCNC(=O)C(CCC)CCC
28

--- query ---
QUERY: I am curious: what Papp at 100 µM value has been reported for `CC/C=C\C/C=C\C/C=C\CCCCCCCC(=O)NCCOC(=O)C(CCC)CCC` ?
RESULT: 14.6

----------
Tested on: primary rat cerebellar granule neurons (CGNs)
EXPERIMENTAL_SETUP: 25 μM, 24 h treatment
Decide using cell survival/death in CGNs, % mean ± SE of controls (MTT) alone. Strictly below 80%: y. Equal to or above 80%: n.

Check out these entries, answers already filled in.
CC/C=C\C/C=C\C/C=C\CCCCCCCC(=O)OCCNC(=O)C(CCC)CCC
n
CC/C=C\C/C=C\C/C=C\CCCCCCCC(=O)OCCOC(=O)C(CCC)CCC
y
CC/C=C\C/C=C\C/C=C\CCCCCCCC(=O)NCCNC(=O)C(CCC)CCC
n

Here is the next item to consider.
QUERY: Hello, I'm reviewing records and need to know if cell survival/death in CGNs, % mean ± SE of controls (MTT) of `CC/C=C\C/C=C\C/C=C\CCCCCCCC(=O)NCCOC(=O)C(CCC)CCC` is below 80%. Could you check?
RESULT: n

----------
Tested on: human liver carcinoma immortalized cell line (HepG2)
EXPERIMENTAL_SETUP: 5 μM, 24 h treatment
Documented cell survival/death in HepG2 cells, % mean ± SE of controls (MTT) across a set of molecules
Numbers only here, please. The scale is %.

// solved cases for cell survival/death in HepG2 cells, % mean ± SE of controls (MTT) follow
CC/C=C\C/C=C\C/C=C\CCCCCCCC(=O)OCCOC(=O)C(CCC)CCC [compound 4]
95
CC/C=C\C/C=C\C/C=C\CCCCCCCC(=O)NCCOC(=O)C(CCC)CCC [compound 2]
102
CC/C=C\C/C=C\C/C=C\CCCCCCCC(=O)OCCNC(=O)C(CCC)CCC [compound 3]
86
CC/C=C\C/C=C\C/C=C\CCCCCCCC(=O)O [ALA, α-linolenic acid, reference compound]
109

From here, focus on the item given below.
QUERY: Fill in: cell survival/death in HepG2 cells, % mean ± SE of controls (MTT) of CC/C=C\C/C=C\C/C=C\CCCCCCCC(=O)NCCNC(=O)C(CCC)CCC [compound 1] is ___
RESULT: 87

----------
System: human liver carcinoma immortalized cell line (HepG2)
EXPERIMENTAL_SETUP: 10 μM, 24 h treatment
MEASURED_PARAMETER: cell survival/death in HepG2 cells, % mean ± SE of controls (MTT) (%)
Could you give me the number in %? Just the number is fine.

CC/C=C\C/C=C\C/C=C\CCCCCCCC(=O)OCCOC(=O)C(CCC)CCC
99
CC/C=C\C/C=C\C/C=C\CCCCCCCC(=O)NCCOC(=O)C(CCC)CCC
104
CC/C=C\C/C=C\C/C=C\CCCCCCCC(=O)NCCNC(=O)C(CCC)CCC
93
CC/C=C\C/C=C\C/C=C\CCCCCCCC(=O)OCCNC(=O)C(CCC)CCC
92

QUERY: # input compound: CC/C=C\C/C=C\C/C=C\CCCCCCCC(=O)O [ALA, α-linolenic acid, reference compound] ; wanted: its cell survival/death in HepG2 cells, % mean ± SE of controls (MTT)
RESULT: 90

----------
Test system: human liver carcinoma immortalized cell line (HepG2)
EXPERIMENTAL_SETUP: 50 μM, 24 h treatment
# note: boundary value 80% maps to 0 (no); cell survival/death in HepG2 cells, % mean ± SE of controls (MTT) below it maps to 1 (yes)

// known answers, use as guide
CC/C=C\C/C=C\C/C=C\CCCCCCCC(=O)NCCNC(=O)C(CCC)CCC [compound 1]
1 (yes)
CC/C=C\C/C=C\C/C=C\CCCCCCCC(=O)OCCOC(=O)C(CCC)CCC [compound 4]
1 (yes)
CC/C=C\C/C=C\C/C=C\CCCCCCCC(=O)OCCNC(=O)C(CCC)CCC [compound 3]
1 (yes)

Could you now consider this next molecule?
QUERY: Please check: cell survival/death in HepG2 cells, % mean ± SE of controls (MTT) for CC/C=C\C/C=C\C/C=C\CCCCCCCC(=O)O [ALA, α-linolenic acid, reference compound] , strictly under 80% or not?
RESULT: 0 (no)

----------
Test system: primary rat cerebellar granule neurons (CGNs)
EXPERIMENTAL_SETUP: 10 μM, 24 h treatment
Reported cell survival/death in CGNs, % mean ± SE of controls (MTT) values follow for various compounds
Kindly answer with a numeric value in %, unit omitted.

CC/C=C\C/C=C\C/C=C\CCCCCCCC(=O)NCCNC(=O)C(CCC)CCC
107
CC/C=C\C/C=C\C/C=C\CCCCCCCC(=O)OCCOC(=O)C(CCC)CCC
114
CC/C=C\C/C=C\C/C=C\CCCCCCCC(=O)NCCOC(=O)C(CCC)CCC
110
CC/C=C\C/C=C\C/C=C\CCCCCCCC(=O)O [ALA, α-linolenic acid, reference compound]
97

# ---- query compound ----
QUERY: Dear colleague, I am looking for the recorded cell survival/death in CGNs, % mean ± SE of controls (MTT) of the following compound: `CC/C=C\C/C=C\C/C=C\CCCCCCCC(=O)OCCNC(=O)C(CCC)CCC`
RESULT: 116
